Measured pIC50, listed per entry for reference.
tested on: DU-145; assay: Cytotoxicity against human DU145 cells after 72 hrs by MTT assay; format: functional, cell-based; settings: DU-145, 72 h
pIC50: −log10 of the molar value.

molecule	tgt	pIC50
C=CC(=C)CC[C@]1(C)[C@H]2C[C@H](O)C[C@@H]3[C@H](OC(=O)CCC)O[C@H](OC(C)=O)[C@@]32CC[C@@H]1C	DU-145	4.17
C=CC(=C)CC[C@]1(C)[C@H]2C[C@H](OC(=O)C(C)CC)C=C3[C@H](OC(=O)CCC)O[C@H](OC(C)=O)[C@@]32[C@H](O)C[C@@H]1C (stereo partly drawn)	DU-145	5.30
C=CC(=C)CC[C@]1(C)[C@H]2C[C@H](OC(=O)C(C)CC)C=C3[C@H](OC(C)=O)O[C@H](OC(C)=O)[C@@]32[C@H](O)C[C@@H]1C (relative stereo)	DU-145	5.37

* * *

test system: WI-38; assay: Cytotoxicity against human WI38 cells after 72 hrs by MTT assay; assay type: cell-based; details: WI-38, 72 h
pIC50: −log10 of the molar value.

molecule	pIC50
C=CC(=C)CC[C@]1(C)[C@H]2C[C@H](OC(C)=O)C=C3[C@@H](OCC)O[C@H](OC(C)=O)[C@@]32[C@H](OC)C[C@@H]1C	4.24
C=CC(=C)CC[C@]1(C)[C@H](C)CC[C@@]23[C@@H](OC(C)=O)O[C@H](OC(C)=O)[C@@H]2C[C@H](O)C[C@@H]13 (relative stereo)	4.58
C=CC(=C)CC[C@]1(C)[C@H]2C[C@H](OC(=O)C(C)CC)C=C3[C@H](OC(=O)CCC)O[C@H](OC(C)=O)[C@@]32[C@H](O)C[C@@H]1C (stereo partly specified) [CASEAMEMBRIN A]	4.71
C=CC(=C)CC[C@]1(C)[C@H]2CC(=O)C=C3[C@H](OC(=O)CCC)O[C@H](OC(C)=O)[C@@]32[C@H](OC)C[C@@H]1C (relative stereo)	4.83
C=CC(=C)CC[C@]1(C)[C@H]2C[C@H](OC(=O)C(C)CC)C=C3[C@H](OC(C)=O)O[C@@H](OC(C)=O)[C@@]32[C@H](OC)C[C@@H]1C (relative stereo)	4.88
C=CC(=C)CC[C@]1(C)[C@H]2C[C@H]3C[C@@H]4[C@@H](OC(C)=O)O[C@H](O3)[C@@]42CC[C@@H]1C	4.29
C=CC(=C)CC[C@]1(C)[C@H]2C[C@H]3C[C@@H]4[C@H](OC(C)=O)O[C@H](O3)[C@@]42CC[C@@H]1C	4.39
C=CC(=C)CC[C@]1(C)[C@H]2C[C@H](O)C[C@@H]3[C@H](OC(=O)CCC)O[C@H](OC(C)=O)[C@@]32CC[C@@H]1C	4.24
C=CC(=C)CC[C@]1(C)[C@H]2C[C@H](OC(=O)C(C)CC)C=C3[C@H](OC(C)=O)O[C@H](OC(C)=O)[C@@]32[C@H](O)C[C@@H]1C (relative stereo)	5.01
C=CC(=C)CC[C@]1(C)[C@H]2C[C@@H](OC(C)=O)C=C3[C@H](OC(C)=O)O[C@H](OC(C)=O)[C@@]32[C@H](OC)C[C@@H]1C	4.88
CC(=O)O[C@H]1C(=O)[C@@]2(C)[C@H]([C@H](OC(=O)c3ccccc3)[C@]3(O)C[C@H](OC(=O)[C@H](O)[C@@H](NC(=O)c4ccccc4)c4ccccc4)C(C)=C1C3(C)C)[C@]1(OC(C)=O)CO[C@@H]1C[C@@H]2O [PACLITAXEL]	7.30

* * *

test system: WI-38; experiment: Cytotoxicity against human WI38 cells after 72 hrs by MTT assay; format: cell-based; settings: WI-38, 72 h
pIC50: −log10 of the molar value.
Measured pIC50, listed per entry for reference.

compound	tgt	pIC50
C=CC(=C)CC[C@]1(C)[C@H]2CC(=O)C=C3[C@H](OC(C)=O)O[C@H](OC(C)=O)[C@@]32[C@H](OC)C[C@@H]1C (relative stereo)	WI-38	4.69
C=CC(=C)CC[C@]1(C)[C@H]2C[C@@H](O)C[C@@H]3[C@H](OC(=O)CCC)O[C@H](OC(C)=O)[C@@]32CC[C@@H]1C (relative stereo)	WI-38	4.68
C=CC(=C)CC[C@]1(C)[C@H]2C[C@@H](OC(C)=O)C[C@@H]3[C@H](OC(C)=O)O[C@H](OC(C)=O)[C@@]32CC[C@@H]1C (relative stereo)	WI-38	4.24

* * *

system: DU-145; experiment: Cytotoxicity against human DU145 cells after 72 hrs by MTT assay; assay type: functional, cell-based; settings: DU-145, 72 h

molecule	tgt	unit abbreviation	IC50
C=CC(=C)CC[C@]1(C)[C@H]2C[C@@H](OC(C)=O)C=C3[C@H](OC(C)=O)O[C@H](OC(C)=O)[C@@]32[C@H](OC)C[C@@H]1C	DU-145	µM	4.3
C=CC(=C)CC[C@]1(C)[C@H]2C[C@H](OC(C)=O)C=C3[C@@H](OCC)O[C@H](OC(C)=O)[C@@]32[C@H](OC)C[C@@H]1C	DU-145	µM	51.7
C=CC(=C)CC[C@]1(C)[C@H]2C[C@@H](OC(C)=O)C=C3[C@@H](OCC)O[C@H](OC(C)=O)[C@@]32[C@H](OC)C[C@@H]1C (relative stereo)	DU-145	µM	47.2

* * *

Measured pIC50, listed per entry for reference.
system: DU-145; assay: Cytotoxicity against human DU145 cells after 72 hrs by MTT assay; type: functional, cell-based; settings: DU-145, 72 h
pIC50: −log10 of the molar value.
quantity: pIC50

molecule	tgt	reported value
C=CC(=C)CC[C@]1(C)[C@H]2CC(=O)C=C3[C@H](OC(C)=O)O[C@H](OC(C)=O)[C@@]32[C@H](OC)C[C@@H]1C (relative stereo)	DU-145	5.25
C=CC(=C)CC[C@]1(C)[C@H]2C[C@@H](O)C[C@@H]3[C@H](OC(=O)CCC)O[C@H](OC(C)=O)[C@@]32CC[C@@H]1C (relative stereo)	DU-145	5.24
C=CC(=C)CC[C@]1(C)[C@H]2C[C@H](OC(=O)C(C)CC)C=C3[C@@H](OCC)O[C@H](OC(C)=O)[C@@]32[C@H](O)C[C@@H]1C (relative stereo)	DU-145	4.83
C=C(C)[C@@H](C)C[C@@H](O)[C@@H](C)[C@H]1CC[C@@]2(C)[C@@H]3CCC4=C(C[C@]35O[C@@H]5C[C@]12C)C(=O)C=CC4(C)C (relative stereo)	DU-145	4.58
C=CC(=C)CC[C@]1(C)[C@H]2C[C@H]3C[C@@H]4[C@@H](OC(C)=O)O[C@H](O3)[C@@]42CC[C@@H]1C	DU-145	4.85
C=CC(=C)CC[C@]1(C)[C@H]2C[C@H](OC(=O)C(C)CC)C=C3[C@H](OC(C)=O)O[C@@H](OC(C)=O)[C@@]32[C@H](OC)C[C@@H]1C (relative stereo)	DU-145	5.32

* * *

test system: DU-145; assay: Cytotoxicity against human DU145 cells after 72 hrs by MTT assay; format: functional, cell-based; settings: DU-145, 72 h

compound	tgt	IC50 [µM]
C=CC(=C)CC[C@]1(C)[C@H]2C[C@@H](OC(C)=O)C[C@@H]3[C@H](OC(C)=O)O[C@H](OC(C)=O)[C@@]32CC[C@@H]1C (relative stereo)	DU-145	20
CC(=O)O[C@H]1C(=O)[C@@]2(C)[C@H]([C@H](OC(=O)c3ccccc3)[C@]3(O)C[C@H](OC(=O)[C@H](O)[C@@H](NC(=O)c4ccccc4)c4ccccc4)C(C)=C1C3(C)C)[C@]1(OC(C)=O)CO[C@@H]1C[C@@H]2O	DU-145	0.04
C=CC(=C)CC[C@]1(C)[C@H]2C[C@H]3C[C@@H]4[C@H](OC(C)=O)O[C@H](O3)[C@@]42CC[C@@H]1C	DU-145	13.3
C=CC(=C)CC[C@]1(C)[C@H](C)CC[C@@]23[C@@H](OC(C)=O)O[C@H](OC(C)=O)[C@@H]2C[C@H](O)C[C@@H]13 (relative stereo)	DU-145	6.6
C=CC(=C)CC[C@]1(C)[C@H]2CC(=O)C=C3[C@H](OC(=O)CCC)O[C@H](OC(C)=O)[C@@]32[C@H](OC)C[C@@H]1C (relative stereo)	DU-145	7.2

* * *

Measured pIC50, listed per entry for reference.
system: WI-38; assay: Cytotoxicity against human WI38 cells after 72 hrs by MTT assay; assay type: cell-based; settings: WI-38, 72 h
pIC50: −log10 of the molar value.
quantity: pIC50

compound	tgt	reported value
C=CC(=C)CC[C@]1(C)[C@H]2C[C@H](OC(=O)C(C)CC)C=C3[C@@H](OCC)O[C@H](OC(C)=O)[C@@]32[C@H](O)C[C@@H]1C (relative stereo)	WI-38	4.22
C=CC(=C)CC[C@]1(C)[C@H]2C[C@@H](OC(C)=O)C=C3[C@@H](OCC)O[C@H](OC(C)=O)[C@@]32[C@H](OC)C[C@@H]1C (relative stereo)	WI-38	4.25
C=C(C)[C@@H](C)C[C@@H](O)[C@@H](C)[C@H]1CC[C@@]2(C)[C@@H]3CCC4=C(C[C@]35O[C@@H]5C[C@]12C)C(=O)C=CC4(C)C (relative stereo)	WI-38	4.11
